targetEntity: DRB1*0401 (Homo sapiens, UniProt P01903+P01911, A100K/A169T/F76Y/I96L/K127E/L162R/M171V/N62H/P40V/Q125Y/R42H/S133A/S149N/S66Y/V115G/V209L/W38E)
Construct: Epstein-Barr virus (EBV) transformed homozygous cell lines were used as sources of human HLA Class II molecules; endogenous in cells; host or cells: PREISS (EBV-transformed homozygous B cell line)
measurementNotes: Class II peptide-binding assay DRB1*0401 (DR4w4)
experimentalParameters: known HLA-DR and DQ restricted epitopes, Table 6
measuredMetric: IC50 (nM)

molecule	valueRelationSign	valueMeasured
CC[C@H](C)[C@H](NC(=O)[C@H](CCCNC(=N)N)NC(=O)[C@H](Cc1c[nH]c2ccccc12)NC(=O)[C@@H](NC(=O)[C@H](C)NC(=O)CNC(=O)[C@H](Cc1c[nH]c2ccccc12)NC(=O)[C@H](CO)NC(=O)[C@@H](N)CCC(=O)O)C(C)C)C(=O)N[C@@H](CC(=O)O)C(=O)N[C@H](C(=O)N1CCC[C@H]1C(=O)N[C@@H](CC(=O)O)C(=O)N[C@@H](CCCCN)C(=O)N[C@@H](CC(C)C)C(=O)N[C@H](C(=O)NCC(=O)N1CCC[C@H]1C(=O)N[C@@H](Cc1ccccc1)C(=O)N[C@H](C(=O)O)[C@@H](C)O)[C@@H](C)O)[C@@H](C)O	>	20000
CC(C)C[C@H](NC(=O)[C@H](Cc1c[nH]cn1)NC(=O)[C@H](CC(=O)O)NC(=O)[C@H](CC(C)C)NC(=O)[C@@H](NC(=O)[C@H](CC(N)=O)NC(=O)[C@@H](N)CC(=O)O)C(C)C)C(=O)N[C@H](C(=O)NCC(=O)N[C@@H](CCCNC(=N)N)C(=O)N[C@@H](CO)C(=O)N[C@@H](CS)C(=O)O)[C@@H](C)O	>	20000
CC[C@H](C)[C@H](NC(=O)[C@H](CC(=O)O)NC(=O)[C@H](CC(C)C)NC(=O)[C@H](Cc1ccc(O)cc1)NC(=O)[C@@H]1CCCN1C(=O)[C@@H](NC(=O)[C@@H](N)CC(=O)O)[C@@H](C)O)C(=O)N[C@H](C(=O)N[C@@H](Cc1ccc(O)cc1)C(=O)N[C@@H](Cc1c[nH]cn1)C(=O)N[C@@H](Cc1ccccc1)C(=O)N[C@H](C(=O)N[C@@H](CCSC)C(=O)N[C@@H](CCC(N)=O)C(=O)N[C@@H](CCCNC(=N)N)C(=O)N[C@@H](CC(C)C)C(=O)N1CCC[C@H]1C(=O)N[C@@H](CC(C)C)C(=O)O)C(C)C)[C@@H](C)O	=	160
CC[C@H](C)[C@H](NC(=O)[C@H](Cc1ccc(O)cc1)NC(=O)[C@@H]1CCCN1C(=O)[C@H](CC(=O)O)NC(=O)[C@H](CCC(=O)O)NC(=O)[C@H](CC(C)C)NC(=O)[C@@H](NC(=O)[C@H](C)N)C(C)C)C(=O)N[C@@H](CC(C)C)C(=O)N[C@@H](CC(C)C)C(=O)N[C@H](C(=O)N[C@@H](CO)C(=O)N[C@@H](CO)C(=O)N[C@@H](CCCCN)C(=O)N[C@H](C(=O)N[C@@H](CO)C(=O)O)C(C)C)C(C)C	=	182
